Would you kindly list Repellency averaged over 5 hours for each of these compounds?
tested on: brown marmorated stink bugs (BMSB); test: Repellency as feeding deterrence in brown marmorated stink bugs, treated filter paper with green bean; type: in vivo; conditions: compound at 2.5% in a 57% Ethanol:43% water solution; control 38%

Compound	Repellency averaged over 5 hours
CCCCCC1C(=O)CCC1CC(=O)OC (stereo not drawn) [Methyl Dihydrojasmonate - Low epi, Methyl Dihydrojasmonate]	58%
CCCCCC1C(=O)CCC1CC(=O)OCCC (stereo not drawn) [Propyl Dihydrojasmonate - High epi, Propyl Dihydrojasmonate]	49%
CCCCCC1C(=O)CCC1CC(=O)OC (stereo not drawn) [Methyl Dihydrojasmonate - High epi, Methyl Dihydrojasmonate]	39%

Proceeding to the next compound to report its Repellency averaged over 5 hours.
Sure, the documented Repellency averaged over 5 hours for CCCCCC1C(=O)CCC1CC(=O)OCCC (stereo not drawn) [Propyl Dihydrojasmonate - Low epi, Propyl Dihydrojasmonate] is 74%

----------
system: Codling Moth larvae; assay: Repellency as feeding deterrence and mortality in Codling Moth larvae on treated media; format: in vivo; conditions: compound at 3.5% in a 57% Ethanol:43% water solution
Recorded Endpoint: Increased Mortality over Control Mortality at 24 hours (%)
One number for each entry, in %.

Compound	Units Symbol	Data Value
CCCCCC1C(=O)CCC1CC(=O)OCC=C(C)C (stereo not drawn) [Prenyl Dihydrojasmonate]	%	34
CCCCCC1C(=O)CCC1CC(=O)OCCC (stereo not drawn) [Propyl Dihydrojasmonate]	%	18
CCCCCCCC1CC(=O)C=C(C)C1 (stereo not drawn) [3-Methyl-5-Heptyl-2-Cyclohexenone]	%	93

Please state, for each entry, its recorded Increased Mortality over Control Mortality at 24 hours.
1. CCCC1CC(C)=CC(O)C1 (stereo not drawn) [3-Methyl-5-Propyl-2-Cyclohexenol]
2. CC1CCC(C(C)(C)O)C(O)C1 (stereo not drawn) [Para-Menthanediol, p-Menthane-3,8-diol, reference compound]
3. CC/C(C)=C/CC/C(C)=C/CC1CCCC1=O (stereo not drawn) [Methyl Apritone]

Response:
1. 9
2. 3
3. 95

----------
Record form. Attribute: Number of Psyllids Choosing each Treatment: Treated. Fill in for each entry.
tested on: psyllids; assay: Psyllid repellency on potato choice assays; type: in vivo; details: 3% compound; potato plants; 100 psyllids per cage; control 50/50

Compound	Data Value
CC/C(C)=C/CC/C(C)=C/CC1CCCC1=O (centres unmarked) [Methyl Apritone]	30

Required: Number of Psyllids Choosing each Treatment: Treated, one value per compound below.
1. CC(C)=CCC/C(C)=C/CC1CCCC1O (centres unmarked) [Apritol]
2. CCCCCC1C(O)CCC1CC(=O)OC (centres unmarked) [Methyl dihydrojasmolate]

Response:
[30, 30]

----------
For each of the compounds below, state its Number of Aphids Choosing each Treatment: Untreated.
system: Aphis gossypii; assay: Melon aphid repellency on leaf choice assays; assay type: in vivo; conditions: 3% compound in a Triton X:Water solution; n=100; control 50/50
Give bare numbers.

Example entries begin here.
Compound	Data Value
CC(C)=CCC/C(C)=C/CC1CCCC1=O (centres unmarked) [Apritone, apritone]	70
CCCCCCCC1CCCC(=O)O1 (centres unmarked) [Delta-dodecalactone]	80
CCCCCCCCCC1CCC(=O)O1 (centres unmarked) [Gamma Tridecalactone]	80
CCCCCC1C(O)CCC1CC(=O)OC (centres unmarked) [Methyl dihydrojasmolate]	70
CC(C)=CCC/C(C)=C/CC1CCCC1O (centres unmarked) [Apritol]	70

Please supply Number of Aphids Choosing each Treatment: Untreated for each of the following items, keeping them in order.
1. CC/C(C)=C/CC/C(C)=C/CC1CCCC1=O (centres unmarked) [Methyl Apritone]
2. CCCCCC1C(=O)CCC1CC(=O)OC (centres unmarked) [Methyl Dihydrojasmonate]
3. CCCCCC1C(=O)CCC1CC(=O)OCCC (centres unmarked) [Propyl Dihydrojasmonate]

Response:
70
70
70
